# System under test: T1, wtEGFR: full-length human EGFR with FLAG tag after the leader, on BaF/3 cells (human, UniProt P00533 25-1210)
# T1 construct: whole, on cells; BaF/3 cells have no endogenous EGF receptors; also called wtEGFR-BaF/3
# Protocol details: Scatchard, 125I-EGF on BaF/3 cells, Kd1 (high-affinity site)

Binder	Kd [pM]
Murine EGF, purified from mouse submaxillary glands (ligand, UniProt P01132 977-1029, looked up, iodinated with 125I (Iodogen) as tracer in the Scatchard assays, mature; also called ^125I-EGF) NSYPGCPSSYDGYCLNGGVCMHIESLDSYTCNCVIGYSGDRCQTRDLRWWELR	29
